These measurements were taken from ChEMBL document CHEMBL1139031.

Tested on: Musca domestica
Measurement description: Insecticidal activity against housefly by contact assay
Assay type: functional
Design: concentration or dose not given beside the values
So basically: Activity at 60% or higher? That is met. Lower than 60%? That is not met.

INSERT INTO results (compound, assigned_category) VALUES
  ('CC1(O)c2cn(-c3c(Cl)cc(C(F)(F)F)cc3Cl)nc2CC1(F)F (stereo not given)', 'met'),
  ('O=C1c2cn(-c3c(Cl)cc(C(F)(F)F)cc3Cl)nc2CC1F (stereo not given)', 'not met'),
  ('FC1Cc2nn(-c3c(Cl)cc(C(F)(F)F)cc3Cl)cc2C1(F)F (stereo not given)', 'met'),
  ('O=C1CC(F)(F)c2nn(-c3c(Cl)cc(C(F)(F)F)cc3Cl)cc21', 'not met'),
  ('FC1CCc2nn(-c3c(Cl)cc(C(F)(F)F)cc3Cl)cc21 (stereo not given)', 'not met');
